# test: Cytotoxicity against human LS180 cells assessed as effect on cell viability at 50 uM measured after 24 hrs by MTT assay relative to control
# Assay type: toxicity, cell-based
# experimental_conditions: read-out: Activity
quantity_name: viability at 24 h, 50 µM (%)
Give a bare numeral; the unit % is implied.

Below: 2 compounds and their reported viability at 24 h, 50 µM.
[[record]]
smiles_code = "CC(=O)c1ccc(N(Cc2cn(-c3c(C)cccc3C)nn2)S(=O)(=O)c2ccccc2)cc1"
test_value = 60.6

[[record]]
smiles_code = "Cc1ccc(C)c(-n2cc(CN(c3ccc(C(O)(C(F)(F)F)C(F)(F)F)cc3)S(=O)(=O)c3ccccc3)nn2)c1"
test_value = 76.9


Query: Please report the recorded viability at 24 h, 50 µM for COc1ccc(-n2cc(CN(c3ccc(C(O)(C(F)(F)F)C(F)(F)F)cc3)S(=O)(=O)c3ccccc3)nn2)cc1 .
Response: 84.9

Query: Please report the recorded viability at 24 h, 50 µM for CC(=O)c1ccc(N(Cc2cn(-c3ccc(C(F)(F)F)cc3)nn2)S(=O)(=O)c2ccccc2)cc1 .
Response: 76.7

Query: Please report the recorded viability at 24 h, 50 µM for O=S(=O)(c1ccccc1)N(Cc1cn(-c2ccccc2)nn1)c1ccc(C(O)(C(F)(F)F)C(F)(F)F)cc1 .
Response: 46.4
